experimental_system: FIH^WT (Homo sapiens, UniProt Q9NWT6)
Construct: pET28a vectors encoding for full-length FIH with an N-terminal His6 tag; His6 (N); host or cells: Escherichia coli BL21
Sequence (Q9NWT6 whole entry): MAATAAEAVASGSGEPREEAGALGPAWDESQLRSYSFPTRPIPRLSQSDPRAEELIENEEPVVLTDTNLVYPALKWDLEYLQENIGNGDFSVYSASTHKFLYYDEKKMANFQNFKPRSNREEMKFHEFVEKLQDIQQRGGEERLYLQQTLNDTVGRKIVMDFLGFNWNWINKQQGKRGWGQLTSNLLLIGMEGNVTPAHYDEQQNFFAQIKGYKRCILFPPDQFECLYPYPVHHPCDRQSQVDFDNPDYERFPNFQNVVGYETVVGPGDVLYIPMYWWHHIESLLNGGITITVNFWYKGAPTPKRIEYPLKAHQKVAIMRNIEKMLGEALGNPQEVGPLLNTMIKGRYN
assay_protocol: Affinity-based fluorescence polarization (FP) assay with FIH WT, without and with 365 nm irradiation
run_parameters: irradiation time 30 min; read-out: Binding affinity to FIH^WT: Ki
quantity_kind: Ki (nM)
Just the number please, in nM, no unit attached.

molecule: O=C(O)CNC(=O)c1ncc(-c2cc(-c3ccc(CO)cc3)no2)cc1O [Neg-2]
recorded_result: 758

Consider now this further molecule.
Q: Entry O=C(O)CNC(=O)c1ncc(-c2cc(-c3cccc([N+](=O)[O-])c3)no2)cc1O [Neg-1] : reported Ki = ?
Result: 459
